Test system: OA articular chondrocytes
Assay Remarks: Expression of OA chondrocyte phenotype marker genes by RT-qPCR after peptide exposure
Format: cell-based, human
Design: key: [+] denotes a significantly increased expression of chondrogenic marker BAPX1/NKX3.2 or a decreased expression of OA chondrocyte phenotypic markers ALP, MMP13, ADAMTS5, COX2, COL10A and RUNX2 in OA articular chondrocytes, in comparison to untreated OA articular chondrocytes.; [−] denotes the absence of a significant effort or a significantly decreased expression of chondrogenic marker BAPX1/NKX3.2 or an increased expression of OA chondrocyte phenotypic markers ALP, MMP13, ADAMTS5, COX2, COL10A and RUNX2 in OA articular chondrocytes, in comparison to untreated OA articular chondrocytes
Study Conditions: Table 2 (FIGS. 2-8), peptide 10 nM, 24 hours, vs untreated OA articular chondrocytes
Metric Name: ADAMTS5 expression

> print(dat)
                                   substance         metric.name  observed
 1  11 (AYYSEGESAFPLNSYMNATN; homo sapiens) [compound 11]  ADAMTS5 expression         +
 2  5 (APEGYAAYYSEGESAFPLNS; homo sapiens) [compound 5]  ADAMTS5 expression         +
 3  14 (SEGESAFPLNSYMNATNHAI; homo sapiens) [compound 14]  ADAMTS5 expression         −
 4  8 (GYAAYYSEGESAFPLNSYMN; homo sapiens) [compound 8]  ADAMTS5 expression         +
 5  2 (WIIAPEGYAAYYSEGESAFP; homo sapiens) [compound 2]  ADAMTS5 expression         −
 6  9 (YAAYYSEGESAFPLNSYMNA; homo sapiens) [compound 9]  ADAMTS5 expression         +
 7  15 (EGESAFPLNSYMNATNHAIV; homo sapiens) [compound 15]  ADAMTS5 expression         −
 8  3 (IIAPEGYAAYYSEGESAFPL; homo sapiens) [compound 3]  ADAMTS5 expression         −
 9  7 (EGYAAYYSEGESAFPLNSYM; homo sapiens) [compound 7]  ADAMTS5 expression         +
10  6 (PEGYAAYYSEGESAFPLNSY; homo sapiens) [compound 6]  ADAMTS5 expression         +
11  13 (YSEGESAFPLNSYMNATNHA; homo sapiens) [compound 13]  ADAMTS5 expression         +
12  16 (YSEGESAFPLNS; homo sapiens) [compound 16]  ADAMTS5 expression         +
13  4 (IAPEGYAAYYSEGESAFPLN; homo sapiens) [compound 4]  ADAMTS5 expression         −
14  10 (AAYYSEGESAFPLNSYMNAT; homo sapiens) [compound 10]  ADAMTS5 expression         +
15  12 (YYSEGESAFPLNSYMNATNH; homo sapiens) [compound 12]  ADAMTS5 expression         +

###

System: OA articular chondrocytes
Assay Remarks: Expression of OA chondrocyte phenotype marker genes by RT-qPCR after peptide exposure
Format: cell-based, human
Design: key: [+] denotes a significantly increased expression of chondrogenic marker BAPX1/NKX3.2 or a decreased expression of OA chondrocyte phenotypic markers ALP, MMP13, ADAMTS5, COX2, COL10A and RUNX2 in OA articular chondrocytes, in comparison to untreated OA articular chondrocytes.; [−] denotes the absence of a significant effort or a significantly decreased expression of chondrogenic marker BAPX1/NKX3.2 or an increased expression of OA chondrocyte phenotypic markers ALP, MMP13, ADAMTS5, COX2, COL10A and RUNX2 in OA articular chondrocytes, in comparison to untreated OA articular chondrocytes
Study Conditions: Table 2 (FIGS. 2-8), peptide 10 nM, 24 hours, vs untreated OA articular chondrocytes
Metric Name: BAPX1/NKX3.2 expression

> print(dat)
                                  substance              metric.name  observed
1  15 (EGESAFPLNSYMNATNHAIV; homo sapiens) [compound 15]  BAPX1/NKX3.2 expression         −
2  3 (IIAPEGYAAYYSEGESAFPL; homo sapiens) [compound 3]  BAPX1/NKX3.2 expression         −
3  12 (YYSEGESAFPLNSYMNATNH; homo sapiens) [compound 12]  BAPX1/NKX3.2 expression         +
4  4 (IAPEGYAAYYSEGESAFPLN; homo sapiens) [compound 4]  BAPX1/NKX3.2 expression         −
5  5 (APEGYAAYYSEGESAFPLNS; homo sapiens) [compound 5]  BAPX1/NKX3.2 expression         +

###

System: OA articular chondrocytes
Assay Remarks: Expression of OA chondrocyte phenotype marker genes by RT-qPCR after peptide exposure
Format: cell-based, human
Set-up: key: [+] denotes a significantly increased expression of chondrogenic marker BAPX1/NKX3.2 or a decreased expression of OA chondrocyte phenotypic markers ALP, MMP13, ADAMTS5, COX2, COL10A and RUNX2 in OA articular chondrocytes, in comparison to untreated OA articular chondrocytes.; [−] denotes the absence of a significant effort or a significantly decreased expression of chondrogenic marker BAPX1/NKX3.2 or an increased expression of OA chondrocyte phenotypic markers ALP, MMP13, ADAMTS5, COX2, COL10A and RUNX2 in OA articular chondrocytes, in comparison to untreated OA articular chondrocytes
Study Conditions: Table 2 (FIGS. 2-8), peptide 10 nM, 24 hours, vs untreated OA articular chondrocytes
Metric Name: BAPX1/NKX3.2 expression

> print(dat)
                                   substance              metric.name  observed
 1  14 (SEGESAFPLNSYMNATNHAI; homo sapiens) [compound 14]  BAPX1/NKX3.2 expression         −
 2  13 (YSEGESAFPLNSYMNATNHA; homo sapiens) [compound 13]  BAPX1/NKX3.2 expression         +
 3  8 (GYAAYYSEGESAFPLNSYMN; homo sapiens) [compound 8]  BAPX1/NKX3.2 expression         +
 4  6 (PEGYAAYYSEGESAFPLNSY; homo sapiens) [compound 6]  BAPX1/NKX3.2 expression         +
 5  2 (WIIAPEGYAAYYSEGESAFP; homo sapiens) [compound 2]  BAPX1/NKX3.2 expression         −
 6  16 (YSEGESAFPLNS; homo sapiens) [compound 16]  BAPX1/NKX3.2 expression         +
 7  7 (EGYAAYYSEGESAFPLNSYM; homo sapiens) [compound 7]  BAPX1/NKX3.2 expression         +
 8  10 (AAYYSEGESAFPLNSYMNAT; homo sapiens) [compound 10]  BAPX1/NKX3.2 expression         +
 9  11 (AYYSEGESAFPLNSYMNATN; homo sapiens) [compound 11]  BAPX1/NKX3.2 expression         +
10  9 (YAAYYSEGESAFPLNSYMNA; homo sapiens) [compound 9]  BAPX1/NKX3.2 expression         +

###

Test system: OA articular chondrocytes
Assay Remarks: Expression of OA chondrocyte phenotype marker genes by RT-qPCR after peptide exposure
Format: cell-based, human
Parameters: key: [+] denotes a significantly increased expression of chondrogenic marker BAPX1/NKX3.2 or a decreased expression of OA chondrocyte phenotypic markers ALP, MMP13, ADAMTS5, COX2, COL10A and RUNX2 in OA articular chondrocytes, in comparison to untreated OA articular chondrocytes.; [−] denotes the absence of a significant effort or a significantly decreased expression of chondrogenic marker BAPX1/NKX3.2 or an increased expression of OA chondrocyte phenotypic markers ALP, MMP13, ADAMTS5, COX2, COL10A and RUNX2 in OA articular chondrocytes, in comparison to untreated OA articular chondrocytes
Study Conditions: Table 2 (FIGS. 2-8), peptide 10 nM, 24 hours, vs untreated OA articular chondrocytes
Metric Name: COL10A expression

> print(dat)
                                   substance                test.system        metric.name  observed
 1  12 (YYSEGESAFPLNSYMNATNH; homo sapiens) [compound 12]  OA articular chondrocytes  COL10A expression         +
 2  13 (YSEGESAFPLNSYMNATNHA; homo sapiens) [compound 13]  OA articular chondrocytes  COL10A expression         +
 3  3 (IIAPEGYAAYYSEGESAFPL; homo sapiens) [compound 3]  OA articular chondrocytes  COL10A expression         −
 4  7 (EGYAAYYSEGESAFPLNSYM; homo sapiens) [compound 7]  OA articular chondrocytes  COL10A expression         +
 5  8 (GYAAYYSEGESAFPLNSYMN; homo sapiens) [compound 8]  OA articular chondrocytes  COL10A expression         +
 6  14 (SEGESAFPLNSYMNATNHAI; homo sapiens) [compound 14]  OA articular chondrocytes  COL10A expression         −
 7  11 (AYYSEGESAFPLNSYMNATN; homo sapiens) [compound 11]  OA articular chondrocytes  COL10A expression         +
 8  9 (YAAYYSEGESAFPLNSYMNA; homo sapiens) [compound 9]  OA articular chondrocytes  COL10A expression         +
 9  6 (PEGYAAYYSEGESAFPLNSY; homo sapiens) [compound 6]  OA articular chondrocytes  COL10A expression         +
10  16 (YSEGESAFPLNS; homo sapiens) [compound 16]  OA articular chondrocytes  COL10A expression         +
11  2 (WIIAPEGYAAYYSEGESAFP; homo sapiens) [compound 2]  OA articular chondrocytes  COL10A expression         −
12  5 (APEGYAAYYSEGESAFPLNS; homo sapiens) [compound 5]  OA articular chondrocytes  COL10A expression         +
13  15 (EGESAFPLNSYMNATNHAIV; homo sapiens) [compound 15]  OA articular chondrocytes  COL10A expression         −
14  4 (IAPEGYAAYYSEGESAFPLN; homo sapiens) [compound 4]  OA articular chondrocytes  COL10A expression         −
15  10 (AAYYSEGESAFPLNSYMNAT; homo sapiens) [compound 10]  OA articular chondrocytes  COL10A expression         +
